Origin of values: PubChem BioAssay AID1159580

Experiment: chemical genetic growth profiling, strain panel (AID 1159580);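 note: tested at 20 µM; growth read once vehicle control cultures reached saturation at 30 °C; 1 = growth at the plate median or of vehicle wells; lower values mean less growth of the strain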
Details: S. cerevisiae deletion strains, growth OD, locus YJL187C, strain SWE1, hits give low values
Screen size: about 5,500 compounds; about 2,000 (36%) were called active. Another 18% or so got no clear call; they are omitted. This is one part of the list.
reported_metric: normalized growth

INSERT INTO results (molecule, reported_metric, experimental_value) VALUES
  ('O=C(O)C1C2CCC1C(O)C2 (centres undefined)', 'normalized growth', 1.02),
  ('Nc1ccc(C(=O)O)cc1', 'normalized growth', 1.02),
  ('Cc1c(C)c2c(c(C)c1O)CCC(C)(CCCC(C)CCCC(C)CCCC(C)C)O2 (centres undefined)', 'normalized growth', 0.982),
  ('COc1cc(C(C)=O)cc(OC)c1O', 'normalized growth', 1.02),
  ('O=C1NC(O)=NC1(c1ccccc1)c1ccccc1', 'normalized growth', 1.02),
  ('NC1=NCCN1CC(=O)O', 'normalized growth', 1),
  ('CSc1ncc(C#N)c2nc(-c3ccc(N(C)C)cc3)nn12', 'normalized growth', 1.01),
  ('CC1(C)CC2C1CC[C@]1(CBr)CCC3C(CC(=O)O)C(=O)O[C@@]32C1 (some centres undefined)', 'normalized growth', 1.02),
  ('CCCc1cc(=O)oc2cc(OCC(=O)OCC)ccc12', 'normalized growth', 0.991);

---

Assay: chemical genetic growth profiling, strain panel (AID 1159580);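 note: tested at 20 µM; growth read once vehicle control cultures reached saturation at 30 °C; 1 = growth at the plate median or of vehicle wells; lower values mean less growth of the strain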
Settings: S. cerevisiae deletion strains, growth OD, locus YOR231W, strain MKK1, hits give low values
The whole screen tested about 5,500 compounds, of which about 2,000 (36%) were called active. About 18% were inconclusive and are not listed. The list shows a part of the results.
reported_metric: normalized growth

INSERT INTO results (compound, reported_metric, experimental_value) VALUES
  ('CCOC(=O)/C(C#N)=C(\Nc1ccc(C(=O)OCC)cc1)SC', 'normalized growth', '0.864 (inactive)'),
  ('Oc1cccc(O)c1', 'normalized growth', '1.02 (inactive)'),
  ('CC(C)CCCC(C)[C@H]1CCC2C3C(=O)C=C4C[C@@H](O)CC[C@]4(C)C3CC[C@@]21C (some centres undefined)', 'normalized growth', '1 (inactive)'),
  ('Cc1cc(/C(N)=N\OC(=O)C(C)(C)C)cc(/C(N)=N\OC(=O)C(C)(C)C)c1', 'normalized growth', '1 (inactive)');

---

Assay: chemical genetic growth profiling, strain panel (AID 1159580);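 note: tested at 20 µM; growth read once vehicle control cultures reached saturation at 30 °C; 1 = growth at the plate median or of vehicle wells; lower values mean less growth of the strain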
Conditions: S. cerevisiae deletion strains, growth OD, locus YNL067W, strain RPL9B, hits give low values
In all, about 5,500 compounds went through this assay and about 2,000 (36%) were called active. About 18% were inconclusive and are not listed. The list shows a part of the results.
Output true for records whose normalized growth is lower than 1, false for records at or above 1.

INSERT INTO results (compound, label_class) VALUES
  ('N[C@@H](CCC(=O)N[C@@H](CS)C(=O)NCC(=O)O)C(=O)O', 'true'),
  ('COc1cc(C(C)=O)cc(OC)c1O', 'false'),
  ('CC(=O)O[C@H]1CCC2(C)C3=C(CCC2C1(C)C)[C@@]1(C)CC[C@@H](C(C)CCC=C(C)C)[C@]1(C)CC3 (some centres not stated)', 'true');

---

Assay: chemical genetic growth profiling, strain panel (AID 1159580);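 note: tested at 20 µM; growth read once vehicle control cultures reached saturation at 30 °C; 1 = growth at the plate median or of vehicle wells; lower values mean less growth of the strain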
Conditions: S. cerevisiae deletion strains, growth OD, locus YHR200W, strain rpn10, hits give low values
In all, about 5,500 compounds went through this assay and about 2,000 (36%) were called active. Roughly 18% stayed inconclusive and do not appear here. The list shows a part of the results.
As shown below, each of these molecules has a reported normalized growth value.
reported_metric: normalized growth

INSERT INTO assay_data (molecule, reported_metric, experimental_value) VALUES
  ('Nc1ccc(S(=O)(=O)NC(=O)c2ccccc2)cc1', 'normalized growth', '1.02 (inactive)'),
  ('CN(C)CCCN1c2ccccc2Sc2ccc(C(F)(F)F)cc21', 'normalized growth', '0.988 (inactive)'),
  ('CC(C)CCCC(C)C1CCC2C3CC(=O)[C@H]4C[C@@H](O)CC[C@]4(C)C3CC[C@]12C (stereo partly drawn)', 'normalized growth', '1.03 (inactive)');
